- ASSAY_NOTES: Quantitative highthroughput screen to assess conditional lethalithy of NOMO1 cells grown in RPMI1640 with untreated serum (RPMI+s) (AID 1963876); note: nearly all actives have a fitted effect of over 35% in size; note: potency is the fitted concentration of half-maximal effect
- CONDITION: NOMO1 AML cells in RPMI+serum, CellTiter-Glo viability, 48 h; series mostly up to 45.8 µM
Results filed as inconclusive are left out. Activity calls are given as the source filed them. Calls come from the whole dose curve; as a rule, active = well fitted cell-killing curve with a large enough effect; inconclusive = small, poorly fitted or top-dose-only effect; inactive = flat fitted curve, though single readings scatter.
OBSERVATION_TYPE: Potency

Completed entries (count: 4):
COMPOUND	OBSERVATION_TYPE	ASSAY_VALUE
Cc1cn([C@@H]2C[C@@H](O)[C@H](CO)O2)c(=O)[nH]c1=O	Potency	inactive
Cc1cccc(CN2CCN(C(c3ccccc3)c3ccc(Cl)cc3)CC2)c1 (configuration not stated)	Potency	inactive
CCN1CCN(c2ccc(Nc3cc(N(C)C(=O)Nc4c(Cl)c(OC)cc(OC)c4Cl)ncn3)cc2)CC1	Potency	5.26 µM (active)
COc1cc2c(c(OC)c1OC)-c1ccc(OC)c(=O)cc1[C@@H](NC(C)=O)CC2	Potency	inactive

Would you mind listing Potency for each of the following compounds?
1. C#CCC(Cc1cnc2nc(N)nc(N)c2n1)c1ccc(C(=O)N[C@@H](CCC(=O)O)C(=O)O)cc1 (some centres not stated)
2. C[N+]1(C)[C@@H]2CC(OC(=O)[C@H](CO)c3ccccc3)C[C@H]1[C@H]1O[C@@H]12 (some centres not stated)

## Output
0.187 µM (active)
inactive

## Input Endpoint output: Potency of `Nc1ccn([C@@H]2CS[C@H](CO)O2)c(=O)n1` . Value?
## Output inactive

###

- ASSAY_NOTES: Cellular viability qHTS for adrenocortical cancer (ACC) cell line NCI-H295R (AID 1963990); note: nearly all actives have a fitted effect of over 60% in size; note: potency is the fitted concentration of half-maximal effect
- CONDITION: CellTiter-Glo ATP luminescence, 48 h; series mostly up to 46.1 µM
- Text: PI: Naris Nilubol, MD Surgical Oncology Program, National Cancer Institute (NCI) National Institute of Health (NIH), Bethesda, Maryland Adrenocortical cancer (ACC) is a rare malignancy with poor survival outcomes and few treatment options. Currently, mitotane is the only FDA-approved therapy for ACC. […] Through a quantitative high-throughput drug screen (qHTS), we identified auranofin (AF), a thioredoxin reductase (TXNRD) inhibitor, as a promising candidate drug. […]
Results filed as inconclusive are left out. The source made the active and inactive calls. The call rests on the fitted dose curve; in most records, active means well fitted cell-killing curve with a large enough effect; inconclusive means small, poorly fitted or top-dose-only effect; inactive means flat fitted curve, though single readings scatter.
OBSERVATION_TYPE: Potency

Completed entries (count: 4):
MOLECULE	Potency
Cc1ccc(O)c2ncccc12	20.6 µM (active)
COc1cccc(-c2c(C)n(Cc3c(F)cccc3C(F)(F)F)c(=O)n(C[C@H](NCCCC(=O)O)c3ccccc3)c2=O)c1F	inactive
O=C(N[C@H](CO)[C@H](O)c1ccc([N+](=O)[O-])cc1)C(Cl)Cl	inactive
COc1ccc(CCN(C)CCCC(C#N)(c2ccc(OC)c(OC)c2)C(C)C)cc1OC (stereo not drawn)	inactive

Would you mind listing Potency for each of the following molecules?
1. O[C@@H]1CO[C@H]2[C@@H]1OC[C@@H]2O
2. NC(=O)c1ccc2[nH]ccc2c1
3. COc1cc(C(N)=O)ccc1NC(=O)[C@@H]1N[C@@H](CC(C)(C)C)[C@@]2(C(=O)Nc3cc(Cl)ccc32)[C@H]1c1cccc(Cl)c1F
4. Cc1cccc(C)c1OCC(=O)N[C@@H](Cc1ccccc1)[C@@H](O)C[C@H](Cc1ccccc1)NC(=O)[C@H](C(C)C)N1CCCNC1=O
5. CC1Cc2ccccc2N1NC(=O)c1ccc(Cl)c(S(N)(=O)=O)c1 (stereo not drawn)
6. CCCN[C@H]1CCc2nc(N)sc2C1
7. C=CC(=O)Nc1cccc(Nc2nc(Nc3ccc(NC4CN(CCF)C4)cc3OC)ncc2C(F)(F)F)c1

## Output
["inactive", "inactive", "11.2 µM (active)", "16.4 µM (active)", "inactive", "inactive", "8.91 µM (active)"]

Would you mind listing Potency for each of the following molecules?
1. CC(C)C(=O)Nc1ncc(-c2cc(C(F)F)nn2-c2c(Cl)cccc2Cl)s1
2. CC(Cc1ccc(O)c(O)c1)(NN)C(=O)O (stereo not drawn)

## Output
1: 22.4 µM (active); 2: inactive

###

- ASSAY_NOTES: Quantitative highthroughput screen to assess conditional lethalithy of P12 Ichikawa cells grown in RPMI1640 with untreated serum (RPMI+s) (AID 1963881); note: nearly all actives have a fitted effect of over 35% in size
- CONDITION: ATP luminescence, 48 h; viability; series mostly up to 45.8 µM
Records with an inconclusive call do not appear. Active and inactive are the calls of the source. Calls follow the shape of the dose curve; as a rule, active = well fitted cell-killing curve with a large enough effect; inconclusive = small, poorly fitted or top-dose-only effect; inactive = flat fitted curve, though single readings scatter.
OBSERVATION_TYPE: outcome

N[C@@H](Cc1cc(I)c(Oc2cc(I)c(O)c(I)c2)c(I)c1)C(=O)O inactive
CCCc1cc(C(N)=S)ccn1 inactive
COc1ccc(Cc2ccc(NC(N)=O)cc2)cc1-c1cccc(Cl)c1 inactive

###

- ASSAY_NOTES: Quantitative highthroughput screen to assess conditional lethalithy of SEM cells grown in RPMI1640 with unreated serum (RPMI+s) (AID 1963883); note: nearly all actives have a fitted effect of over 35% in size
- CONDITION: SEM B-ALL cells, CellTiter-Glo viability, 48 h; series mostly up to 45.8 µM
Records with an inconclusive call do not appear. The source made the active and inactive calls. Calls follow the shape of the dose curve; as a rule, active = well fitted cell-killing curve with a large enough effect; inconclusive = small, poorly fitted or top-dose-only effect, or effect the other way; inactive = no such curve, though single readings can be large or run the other way.
Answer with one of the outcomes given here: active, inactive

Use these answered entries as a reference point.
COMPOUND	GROUP
COc1cc2nc(N3CCN(C(=O)C4COc5ccccc5O4)CC3)nc(N)c2cc1OC (centres undefined)	inactive
CNCCCC12CCC(c3ccccc31)c1ccccc12	inactive
CC1(O)CC(c2nc(-c3ccc4ccc(-c5ccccc5)nc4c3)c3c(N)nccn23)C1 (centres undefined)	active

Attention now turns to another entry.
## Input Record lookup: outcome of this test for `COc1cc2ncn(-c3cc(OCc4ccccc4C(F)(F)F)c(C(N)=O)s3)c2cc1OC` ?
## Output active

###

- ASSAY_NOTES: Quantitative highthroughput screen to assess conditional lethalithy of SEM cells grown in Human Plasma-Like Medium with dialyzed fetal bovine serum (HPLM+ds) (AID 1963882); note: nearly all actives have a fitted effect of over 35% in size
- CONDITION: SEM B-ALL cells in HPLM+ds, CellTiter-Glo viability, 48 h; series mostly up to 45.8 µM
Inconclusive results are not listed. Calls of active or inactive are those of the source. Calls come from the whole dose curve; as a rule, active = well fitted cell-killing curve with a large enough effect; inconclusive = small, poorly fitted or top-dose-only effect, or effect the other way; inactive = no such curve, though single readings can be large or run the other way. Square brackets hold non-standard residues; d marks the D form. Peptide text beside a SMILES is read from it. * marks the point of attachment. Nva = CCC[C@H](N)C(=O)O; Cbz = O=C(OCc1ccccc1)*
Answer with one of the outcomes given here: active, inactive

MOLECULE	GROUP
CCOC(=O)N1CCN([N+]([O-])=NOc2cc(ON=[N+]([O-])N3CCN(C(=O)OCC)CC3)c([N+](=O)[O-])cc2[N+](=O)[O-])CC1	inactive
CN[C@@H]1CN(c2ccc3c(=O)c(C(=O)O)cn(-c4nccs4)c3n2)C[C@@H]1OC	active
Cc1nc(NC(=O)N2CCC[C@@H]2C(N)=O)sc1-c1csc(C(C)(C)C)n1	active
CCC[C@@H](C=O)NC(=O)[C@H](CC(C)C)NC(=O)[C@H](CC(C)C)NC(=O)OCc1ccccc1 (Cbz-Leu-Leu-[Nva]-aldehyde)	active
COc1ccccc1-c1cccc(-c2c(O)c3cc(C#N)c(Cl)cc3[nH]c2=O)c1	active
COc1cc2ncnc(Nc3cc(Br)c(O)c(Br)c3)c2cc1OC	inactive

## Input Record lookup: outcome of this test for `CC(C)N(CC[C@H](c1ccccc1)c1cc(CO)ccc1O)C(C)C` ?
## Output inactive

## Input Check `CCCn1c(=O)c2[nH]c(-c3cnn(Cc4cccc(C(F)(F)F)c4)c3)nc2n(CC)c1=O` too.
## Output inactive

## Input Check `COc1cc(NC(=O)c2ccc(-c3ccc(Cl)cc3)o2)cc(OC)c1` too.
## Output inactive

## Input Check `COc1nc(C)cnc1NS(=O)(=O)c1cccnc1-c1ccc(-c2nnco2)cc1` too.
## Output inactive

## Input Check `c1ccc(CNc2nc(N3CCOc4ccccc43)nc3c2CCCC3)cc1` too.
## Output inactive

## Input Check CC1(O)CC(c2nc(-c3ccc4ccc(-c5ccccc5)nc4c3)c3c(N)nccn23)C1 (stereo not drawn) too.
## Output active

## Input Check Cc1ccccc1C(OCCN(C)C)c1ccccc1 (stereo not drawn) too.
## Output inactive

###

- ASSAY_NOTES: Quantitative highthroughput screen to assess conditional lethalithy of P12 Ichikawa cells grown in Human Plasma-Like Medium with dialyzed fetal bovine serum (HPLM+ds) (AID 1963879); note: nearly all actives have a fitted effect of over 35% in size
- CONDITION: ATP luminescence, 48 h; viability; series mostly up to 45.8 µM
Inconclusive results are not listed. The source made the active and inactive calls. The call rests on the fitted dose curve; in most records, active means well fitted cell-killing curve with a large enough effect; inconclusive means small, poorly fitted or top-dose-only effect; inactive means flat fitted curve, though single readings scatter.
Answer with one of the outcomes given here: y for active, n for inactive

## Input Record lookup: outcome of this test for `O=C(CCCN1CCC(O)(c2ccc(Cl)cc2)CC1)c1ccc(F)cc1` ?
## Output n

## Input Check Cc1noc(-c2ccc(CSCCC(=O)O)cc2)c1NC(=O)OC(C)c1ccccc1Cl (stereo not drawn) too.
## Output y

## Input Check `COc1nc(N)nc2c1ncn2[C@@H]1O[C@H](CO)[C@@H](O)[C@@H]1O` too.
## Output n
